B1: Tyrosine-protein kinase BTK, residues 215 to 273; numbered along this chain, Q06187 (parent)
chain: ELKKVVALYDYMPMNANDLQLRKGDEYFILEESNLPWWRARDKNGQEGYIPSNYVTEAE

Variants of: B1
assay.explanation: abundance fitness (aPCA) (normalised: wild type 0, dead -1); higher = more abundant; growth selection in yeast, the domain comes from the species named
test.context: Homo sapiens
attribute.measured: abundance fitness

[[record]]
variant_string = "Y54M"
reported_result = 0.035

[[record]]
variant_string = "N44I"
reported_result = 0.036

[[record]]
variant_string = "R41G"
reported_result = -0.317

[[record]]
variant_string = "F28A"
reported_result = -0.055

[[record]]
variant_string = "F28H"
reported_result = -0.07

[[record]]
variant_string = "E32W"
reported_result = -0.09

[[record]]
variant_string = "Y27K"
reported_result = -0.771

[[record]]
variant_string = "Y49K"
reported_result = -0.056

[[record]]
variant_string = "L19V"
reported_result = -0.314

[[record]]
variant_string = "E59S"
reported_result = 0.067

[[record]]
variant_string = "G24C"
reported_result = -0.472

[[record]]
variant_string = "R22V"
reported_result = 0.031

[[record]]
variant_string = "S52K"
reported_result = 0.088

[[record]]
variant_string = "E57S"
reported_result = -0.009

[[record]]
variant_string = "K43S"
reported_result = -0.016

[[record]]
variant_string = "N53A"
reported_result = -0.005

[[record]]
variant_string = "R41E"
reported_result = -0.305

[[record]]
variant_string = "K23I"
reported_result = -0.207

[[record]]
variant_string = "Q46V"
reported_result = 0.044

[[record]]
variant_string = "R39W"
reported_result = -0.042

[[record]]
variant_string = "D25P"
reported_result = -1.15

[[record]]
variant_string = "S33K"
reported_result = 0.009

